Biological target: T1, Human BCMA (human, UniProt Q02223 1-54, limits assumed)
T1 construct: Soluble analyte in SPR; construct not described; also called huBCMA; B-cell maturation antigen
T1 sequence (looked up): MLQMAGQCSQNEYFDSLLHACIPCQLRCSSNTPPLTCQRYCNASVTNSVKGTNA
Assay: SPR, IgG immobilised, 37 C
Endpoint label: T ½ (min)

Binder	Unit text	Measurement
L3.PY/P6E01 (antibody, V domains shown, IgG) VH: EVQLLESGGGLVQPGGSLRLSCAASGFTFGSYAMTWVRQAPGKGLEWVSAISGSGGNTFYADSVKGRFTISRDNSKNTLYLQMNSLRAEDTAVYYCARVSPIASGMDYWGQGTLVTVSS VL: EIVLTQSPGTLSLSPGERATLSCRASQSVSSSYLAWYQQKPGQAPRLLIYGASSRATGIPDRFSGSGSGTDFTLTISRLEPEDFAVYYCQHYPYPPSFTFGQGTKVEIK	min	5.91
L3.PY/L1.PS/H2.YQ (antibody, V domains shown, IgG) VH: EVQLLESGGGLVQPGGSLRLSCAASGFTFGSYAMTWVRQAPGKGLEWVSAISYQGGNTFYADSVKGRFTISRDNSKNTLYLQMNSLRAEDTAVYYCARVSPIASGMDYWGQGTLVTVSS VL: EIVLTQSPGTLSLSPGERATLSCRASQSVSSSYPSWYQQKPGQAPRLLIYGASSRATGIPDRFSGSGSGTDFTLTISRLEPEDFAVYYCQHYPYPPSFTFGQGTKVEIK	min	2.69
L3.PY/L1.PS/H2.QR (antibody, V domains shown, IgG) VH: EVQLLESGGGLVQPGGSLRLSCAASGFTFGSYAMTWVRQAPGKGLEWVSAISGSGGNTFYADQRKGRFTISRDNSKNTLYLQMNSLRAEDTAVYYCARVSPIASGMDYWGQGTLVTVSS VL: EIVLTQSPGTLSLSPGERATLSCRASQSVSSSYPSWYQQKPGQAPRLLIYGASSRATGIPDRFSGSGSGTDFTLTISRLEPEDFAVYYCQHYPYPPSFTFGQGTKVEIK	min	0.11
